Below, each of the compounds is paired with its reported Hb value.
Species: Rattus norvegicus
Experiment: Open TG-GATES - Regimen: Single
Type: toxicity, organism-based, Sprague-Dawley
Parameters: regimen Single, gender Male, age 6 weeks
Conditions: in vivo, po, 100 mg/kg, 3 h, tissue Blood, route gavage, dose level Low
# number only, unit g/dL dropped from output

Worked examples, 3 compounds total:
compound	unitString	Hb
CCOC(=O)CCC(=O)O[C@H]1[C@H](O[C@@H]2[C@@H](C)[C@H](O[C@H]3C[C@@](C)(OC)[C@@H](O)[C@H](C)O3)[C@@H](C)C(=O)O[C@H](CC)[C@@](C)(O)[C@H](O)[C@@H](C)C(=O)[C@H](C)C[C@@]2(C)O)O[C@H](C)C[C@@H]1N(C)C [ERYTHROMYCIN ETHYLSUCCINATE]	g/dL	13.2
NC(N)=Nc1nc(CSCCC(N)=NS(N)(=O)=O)cs1 [FAMOTIDINE]	g/dL	13.5
COc1ccc2[nH]c([S+]([O-])Cc3ncc(C)c(OC)c3C)nc2c1 (centres undefined) [OMEPRAZOLE]	g/dL	12.8

Next up:
Problem: Output Hb of COC1=CC(=O)C[C@@H](C)[C@]12Oc1c(Cl)c(OC)cc(OC)c1C2=O [GRISEOFULVIN]
Solution: 13

---

Below, each of the molecules is paired with its reported Hb value.
Species: Rattus norvegicus
Experiment: Open TG-GATES - Regimen: Daily Repeat
Assay type: toxicity, organism-based, Sprague-Dawley
Parameters: regimen Daily Repeat, gender Male, age 6 weeks
Details: in vivo, po, 0 mg/kg, […], tissue Blood, route gavage, dose level Control, time 14 day
# number only, unit g/dL dropped from output

molecule	measure	number
O=C(CCCN1CCC(O)(c2ccc(Cl)cc2)CC1)c1ccc(F)cc1	Hb	14.6
NNC(=O)c1ccncc1	Hb	15.1
CCOC(=O)CCC(=O)O[C@H]1[C@H](O[C@@H]2[C@@H](C)[C@H](O[C@H]3C[C@@](C)(OC)[C@@H](O)[C@H](C)O3)[C@@H](C)C(=O)O[C@H](CC)[C@@](C)(O)[C@H](O)[C@@H](C)C(=O)[C@H](C)C[C@@]2(C)O)O[C@H](C)C[C@@H]1N(C)C [ERYTHROMYCIN ETHYLSUCCINATE]	Hb	13.9
CN(C)CCN(Cc1cccs1)c1ccccn1	Hb	14
CN1C(=O)CN=C(c2ccccc2)c2cc(Cl)ccc21	Hb	15.2
COC1=CC(=O)C[C@@H](C)[C@]12Oc1c(Cl)c(OC)cc(OC)c1C2=O	Hb	14.1

Problem: Output Hb of CC1=C(/C=C/C(C)=C/C=C/C(C)=C/CO)C(C)(C)CCC1
Solution: 13.7

Problem: Output Hb of NC(N)=Nc1nc(CSCCC(N)=NS(N)(=O)=O)cs1
Solution: 14.3

Problem: Output Hb of CCOc1ccc(NC(=O)CC(C)O)cc1 (stereo unspecified)
Solution: 14

Problem: Output Hb of CCCNC(=O)NS(=O)(=O)c1ccc(Cl)cc1 [CHLORPROPAMIDE]
Solution: 14.5

Problem: Output Hb of COc1ccc2[nH]c([S+]([O-])Cc3ncc(C)c(OC)c3C)nc2c1 (stereo unspecified)
Solution: 14.7

---

Species: Rattus norvegicus
Assay: Open TG-GATES - Regimen: Single
Type: toxicity, organism-based, Sprague-Dawley
Design: regimen Single, gender Male, age 6 weeks
Details: in vivo, po, 0 mg/kg, 3 h, tissue Plasma, route gavage, dose level Control
measure: BUN (mg/dL)
# number only, unit mg/dL dropped from output

compound	BUN, mg/dL
CCOc1ccc(NC(=O)CC(C)O)cc1 (stereo unspecified)	9.8
CCOC(=O)CCC(=O)O[C@H]1[C@H](O[C@@H]2[C@@H](C)[C@H](O[C@H]3C[C@@](C)(OC)[C@@H](O)[C@H](C)O3)[C@@H](C)C(=O)O[C@H](CC)[C@@](C)(O)[C@H](O)[C@@H](C)C(=O)[C@H](C)C[C@@]2(C)O)O[C@H](C)C[C@@H]1N(C)C [ERYTHROMYCIN ETHYLSUCCINATE]	14.6
CN(C)CCN(Cc1cccs1)c1ccccn1	14.4
O=C(CCCN1CCC(O)(c2ccc(Cl)cc2)CC1)c1ccc(F)cc1	16
NC(N)=Nc1nc(CSCCC(N)=NS(N)(=O)=O)cs1	10.8
C[C@@H]1C[C@H]2[C@@H]3CCC4=CC(=O)C=C[C@]4(C)[C@@]3(F)[C@@H](O)C[C@]2(C)[C@@]1(O)C(=O)CO	11.2
CC1=C(/C=C/C(C)=C/C=C/C(C)=C/CO)C(C)(C)CCC1	12.8
CC(C)OC(=O)C(C)(C)Oc1ccc(C(=O)c2ccc(Cl)cc2)cc1 [FENOFIBRATE]	9
CCCNC(=O)NS(=O)(=O)c1ccc(Cl)cc1 [CHLORPROPAMIDE]	10.4
CN(C)CCCN1c2ccccc2CCc2ccc(Cl)cc21	9.6

Problem: Output BUN of Cc1ccc(C)c(OCCCC(C)(C)C(=O)O)c1
Solution: 12.6

Problem: Output BUN of CN(C)CCCN1c2ccccc2CCc2ccccc21
Solution: 9

Problem: Output BUN of COc1ccc2[nH]c([S+]([O-])Cc3ncc(C)c(OC)c3C)nc2c1 (stereo unspecified)
Solution: 12.6
